Kindly state Ki for each of the entries shown.
- EXPERIMENTAL_SYSTEM: PCSK9 (Homo sapiens, UniProt Q8NBP7)
- Construct: biotin (biotinylated); purchased
- Sequence (Q8NBP7 153-692): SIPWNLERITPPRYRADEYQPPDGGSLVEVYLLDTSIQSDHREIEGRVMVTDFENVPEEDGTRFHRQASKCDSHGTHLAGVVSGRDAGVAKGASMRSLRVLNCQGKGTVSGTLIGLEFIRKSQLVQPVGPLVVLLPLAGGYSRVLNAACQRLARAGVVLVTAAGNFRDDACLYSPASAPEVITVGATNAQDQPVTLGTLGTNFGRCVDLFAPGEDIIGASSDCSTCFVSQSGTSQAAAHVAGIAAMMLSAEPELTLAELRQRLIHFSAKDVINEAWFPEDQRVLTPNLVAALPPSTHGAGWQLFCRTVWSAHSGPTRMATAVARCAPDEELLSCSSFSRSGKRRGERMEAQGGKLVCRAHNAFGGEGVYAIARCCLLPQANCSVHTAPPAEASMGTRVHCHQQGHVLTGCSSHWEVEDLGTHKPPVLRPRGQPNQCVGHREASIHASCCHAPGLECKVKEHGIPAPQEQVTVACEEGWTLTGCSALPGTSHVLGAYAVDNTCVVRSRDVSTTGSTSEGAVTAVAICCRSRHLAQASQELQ
- METHOD_SUMMARY: PCSK9 Alexa FRET Ultra TR-FRET assay
- Assay type: binding
- CONDITION_SUMMARY: Ki Ultra, calculated from IC50 and KD of AF cyclic peptide; 0.5 nM PCSK9, 960 nM AF cyclic peptide; read-out: Alexa FRET Ultra TR-FRET

Below is a list of compounds. For each, state its recorded Ki.
1. CCCCCCCCCCCCCCCC(=O)NCC[N+](C)(C)CCOCCOCCC(=O)NC[C@H]1NC(=O)[C@H](C)NC(=O)CCC(=O)N2CCCCCCn3cc(c4cc(F)ccc43)C[C@@H]3NC(=O)[C@H](Cc4cccc(c4)CNC(=O)CO[C@H]4CCN(C3=O)[C@@H]4C(=O)N[C@@H]([C@@H](C)O)C(=O)N[C@@H](Cc3ccc(OC)cc3)C(=O)N3CCC[C@@]3(C)C(=O)NCCc3ccc(cc3)C2)NC1=O
2. COc1ccc(C[C@@H]2NC(=O)[C@H]([C@@H](C)O)NC(=O)[C@@H]3[C@@H]4CCN3C(=O)[C@@H]3Cc5cn(c6ccc(F)cc56)CCCCCCN(Cc5ccc(cc5)CCNC(=O)[C@]5(C)CCCN5C2=O)C(=O)CCC(=O)N[C@@H](C)C(=O)N[C@H](CNC(=O)CCOCCOCC[N+](C)(C)CCNC(=O)COCCOCCNC(=O)COCCOCCNC(=O)CC[C@H](NC(=O)CC[C@H](NC(=O)CCCCCCCCCCCCCCC(=O)O)C(=O)O)C(=O)O)C(=O)N[C@@H](Cc2cccc(c2)CNC(=O)CO4)C(=O)N3)cc1
3. COc1ccc(C[C@@H]2NC(=O)[C@H]([C@@H](C)O)NC(=O)[C@@H]3[C@@H]4CCN3C(=O)[C@@H]3Cc5cn(c6ccc(F)cc56)CCCCCCN(Cc5ccc(cc5)CCNC(=O)[C@]5(C)CCCN5C2=O)C(=O)CCC(=O)N[C@@H](C)C(=O)N[C@H](CNC(=O)COCCOCCNC(=O)COCCOCCNC(=O)CCOCCOCC[N+](C)(C)CCNC(=O)CCCCCCCCCCCCCCC(=O)O)C(=O)N[C@@H](Cc2cccc(c2)CNC(=O)CO4)C(=O)N3)cc1
4. COc1ccc(C[C@@H]2NC(=O)[C@H]([C@@H](C)O)NC(=O)[C@@H]3[C@@H]4CCN3C(=O)[C@@H]3Cc5cn(c6ccc(F)cc56)CCCCCCN(Cc5ccc(cc5)CCNC(=O)[C@]5(C)CCCN5C2=O)C(=O)CCC(=O)N[C@@H](C)C(=O)N[C@H](CNC(=O)COCCOCC[N+](C)(C)CCOCCNC(=O)COCCOCCNC(=O)COCCOCCNC(=O)CC[C@H](NC(=O)CC[C@H](NC(=O)CCCCCCCCCCCCCCCCC(=O)O)C(=O)O)C(=O)O)C(=O)N[C@@H](Cc2cccc(c2)CNC(=O)CO4)C(=O)N3)cc1
5. COC(=O)CCCCCCCCCCCCCCCCC(=O)N[C@@H](CCC(=O)NCCOCCOCC(=O)NCCOCCOCC(=O)NCC[N+](C)(C)CCCCCC(=O)NC[C@H]1NC(=O)[C@H](C)NC(=O)CCC(=O)N2CCCCCCn3cc(c4cc(F)ccc43)C[C@@H]3NC(=O)[C@H](Cc4cccc(c4)CNC(=O)CO[C@H]4CCN(C3=O)[C@@H]4C(=O)N[C@@H]([C@@H](C)O)C(=O)N[C@@H](Cc3ccc(OC)cc3)C(=O)N3CCC[C@@]3(C)C(=O)NCCc3ccc(cc3)C2)NC1=O)C(=O)OC

Response:
1: 16 pM; 2: 3 pM; 3: 3 pM; 4: 3 pM; 5: 7 pM

Below is a list of compounds. For each, state its recorded Ki.
1. COc1ccc(C[C@@H]2NC(=O)[C@H]([C@@H](C)O)NC(=O)[C@@H]3[C@@H]4CCN3C(=O)[C@@H]3Cc5cn(c6ccc(F)cc56)CCCCCCN(Cc5ccc(cc5)CCNC(=O)[C@]5(C)CCCN5C2=O)C(=O)CCC(=O)N[C@@H](C)C(=O)N[C@H](CNC(=O)COCCOCCNC(=O)COCCOCCNC(=O)CC[C@H](NC(=O)CC[C@H](NC(=O)CCCCCCCCCCCCCCC(=O)O)C(=O)O)C(=O)O)C(=O)N[C@@H](Cc2cccc(c2)CNC(=O)CO4)C(=O)N3)cc1
2. COc1ccc(C[C@@H]2NC(=O)[C@H]([C@@H](C)O)NC(=O)[C@@H]3[C@@H]4CCN3C(=O)[C@@H]3Cc5cn(c6ccc(F)cc56)CCCCCCN(Cc5ccc(cc5)CCNC(=O)[C@]5(C)CCCN5C2=O)C(=O)CCC(=O)N[C@@H](C)C(=O)N[C@H](CNC(=O)CCCCC[N+](C)(C)CCNC(=O)CCCCC[N+](C)(C)CCNC(=O)COCCOCCNC(=O)COCCOCCNC(=O)CC[C@H](NC(=O)CCCCCCCCCCCCCCCCC(=O)O)C(=O)O)C(=O)N[C@@H](Cc2cccc(c2)CNC(=O)CO4)C(=O)N3)cc1
3. COc1ccc(C[C@@H]2NC(=O)[C@H]([C@@H](C)O)NC(=O)[C@@H]3[C@@H]4CCN3C(=O)[C@@H]3Cc5cn(c6ccc(F)cc56)CCCCCCN(Cc5ccc(cc5)CCNC(=O)[C@]5(C)CCCN5C2=O)C(=O)CCC(=O)N[C@@H](C)C(=O)N[C@H](CNC(=O)COCC[N+](C)(C)CCOCCNC(=O)COCCOCCNC(=O)COCCOCCNC(=O)CC[C@H](NC(=O)CCCCCCCCCCCCCCCCC(=O)O)C(=O)O)C(=O)N[C@@H](Cc2cccc(c2)CNC(=O)CO4)C(=O)N3)cc1
4. COc1ccc(C[C@@H]2NC(=O)[C@H]([C@@H](C)O)NC(=O)[C@@H]3[C@@H]4CCN3C(=O)[C@@H]3Cc5cn(c6ccc(F)cc56)CCCCCCN(Cc5ccc(cc5)CCNC(=O)[C@]5(C)CCCN5C2=O)C(=O)CCC(=O)N[C@@H](C)C(=O)N[C@H](CNC(=O)COCCOCCNC(=O)COCCOCCNC(=O)CC[C@H](NC(=O)CCCCCCCCCCCCCCC(=O)O)C(=O)O)C(=O)N[C@@H](Cc2cccc(c2)CNC(=O)CO4)C(=O)N3)cc1

Response:
10 pM
8 pM
9 pM
5 pM

* * *

Kindly state pKi for each of the entries shown.
- EXPERIMENTAL_SYSTEM: PCSK9 (Homo sapiens)
- Construct: biotin (biotinylated); purchased
- METHOD_SUMMARY: PCSK9 Alexa FRET Ultra TR-FRET assay
- Type: binding
- CONDITION_SUMMARY: Ki Ultra, calculated from IC50 and KD of AF cyclic peptide; 0.5 nM PCSK9, 960 nM AF cyclic peptide; read-out: Alexa FRET Ultra TR-FRET
Numbers only, as −log10 of the molar value.

COMPOUND	pKi
COc1ccc(C[C@@H]2NC(=O)[C@H]([C@@H](C)O)NC(=O)[C@@H]3[C@@H]4CCN3C(=O)[C@@H]3Cc5cn(c6ccc(F)cc56)CCCCCCN(Cc5ccc(cc5)CCNC(=O)[C@]5(C)CCCN5C2=O)C(=O)CCC(=O)N[C@@H](C)C(=O)N[C@H](CNC(=O)CC[C@H](NC(=O)CCCCC[N+](C)(C)CCNC(=O)COCCOCCNC(=O)COCCOCCNC(=O)CC[C@H](NC(=O)CCCCCCCCCCCCCCCCC(=O)O)C(=O)O)C(=O)O)C(=O)N[C@@H](Cc2cccc(c2)CNC(=O)CO4)C(=O)N3)cc1 [compound 33]	10.80

Now consider the entry below.
Request: Query: pKi; subject: COc1ccc(C[C@@H]2NC(=O)[C@H]([C@@H](C)O)NC(=O)[C@@H]3[C@@H]4CCN3C(=O)[C@@H]3Cc5cn(c6ccc(F)cc56)CCCCCCN(Cc5ccc(cc5)CCNC(=O)[C@]5(C)CCCN5C2=O)C(=O)CCC(=O)N[C@@H](C)C(=O)N[C@H](CNC(=O)CCOCCOCCNC(=O)CCCCCCCCCCCCCCCCC(=O)O)C(=O)N[C@@H](Cc2cccc(c2)CNC(=O)CO4)C(=O)N3)cc1 [Ex-24]
Response: 10.74

* * *

- EXPERIMENTAL_SYSTEM: PCSK9 (Homo sapiens, UniProt Q8NBP7)
- Construct: biotin (biotinylated); purchased
- METHOD_SUMMARY: PCSK9 Alexa FRET Standard TR-FRET assay
- Format: binding
- CONDITION_SUMMARY: Ki calculated from IC50 and KD of AF cyclic peptide Reagent A; 0.5 nM PCSK9, 20 nM AF cyclic peptide; read-out: Alexa FRET Stdt TR-FRET
Kindly state Ki for each of the entries shown.

Known Ki results, listed for orientation:
COc1ccc(C[C@@H]2NC(=O)[C@H]([C@@H](C)O)NC(=O)[C@@H]3[C@@H]4CCN3C(=O)[C@@H]3Cc5cn(c6ccc(F)cc56)CCCCCCN(Cc5ccc(cc5)CCNC(=O)[C@]5(C)CCCN5C2=O)C(=O)CCC(=O)N[C@@H](C)C(=O)N[C@H](CNC(=O)CCOCCOCC[N+](C)(C)CCNC(=O)Cc2c(C)n(C(=O)c5ccc(Cl)cc5)c5ccc(OC)cc25)C(=O)N[C@@H](Cc2cccc(c2)CNC(=O)CO4)C(=O)N3)cc1 < 1.26 nM
COc1ccc(C[C@@H]2NC(=O)[C@H]([C@@H](C)O)NC(=O)[C@@H]3[C@@H]4CCN3C(=O)[C@@H]3Cc5cn(c6ccc(F)cc56)CCCCCN(Cc5ccc(cc5)CCNC(=O)[C@]5(C)CCCN5C2=O)C(=O)CCC(=O)N[C@@H](C)C(=O)N[C@H](CNC(=O)CCOCCOCC[N+](C)(C)CCNC(=O)COCCOCCNC(=O)COCCOCCNC(=O)CC[C@H](NC(=O)CC[C@H](NC(=O)CCCCCCCCCCCCCCCCC(=O)O)C(=O)O)C(=O)O)C(=O)N[C@@H](Cc2cccc(c2)CNC(=O)CO4)C(=O)N3)cc1 < 1.26 nM

Now consider the entry below.
Request: Query: Ki; subject: "COc1ccc(C[C@@H]2NC(=O)[C@H]([C@@H](C)O)NC(=O)[C@@H]3[C@@H]4CCN3C(=O)[C@@H]3Cc5cn(c6ccc(F)cc56)CCCCCCN(Cc5ccc(cc5)CCNC(=O)[C@]5(C)CCCN5C2=O)C(=O)CCC(=O)N[C@@H](C)C(=O)N[C@H](CNC(=O)CCCCC[N+](C)(C)CCNC(=O)COCCOCCNC(=O)CCCCCCCCCCCCCCCCC(=O)O)C(=O)N[C@@H](Cc2cccc(c2)CNC(=O)CO4)C(=O)N3)cc1"
Response: < 1.26 nM
